tested on: CCRF-CEM leukemia; experiment: NCI-60 one-dose screen, 48 h; conditions: 10 µM unless noted
The panel holds about 83,000 compounds, 20% with a hit somewhere; the sample as a whole holds those more often. Active and inactive are the calls of the source. How the source made its calls: active means growth percent below 10; inactive means the rest.
Return exactly one item of t for active, f for inactive

Take a look at these entries with their results.
[
  {
    "chemical_structure": "CC(=O)c1c(C)[nH]c(-c2nc3ccc(N4CCN(C)CC4)cc3[nH]2)c1-c1ccc(N(C)C)cc1",
    "class": "f"
  },
  {
    "chemical_structure": "CC/C=C\\C[C@H]1CC=C2C(=O)C=C[C@@H]2CC=CCCCC(=O)O[C@@H](CCCCC)CC=C2C(=O)C=C[C@@H]2CC=CCCCC(=O)O[C@@H](CCCCC)CC=C2C(=O)C=C[C@@H]2CC=CCCCC(=O)O[C@@H](CCCCC)CC=C2C(=O)C=C[C@@H]2CC=CCCCC(=O)O1",
    "class": "t"
  },
  {
    "chemical_structure": "NC1=NN(c2ccccc2)C(=O)/C1=C/c1ccc(Cl)cc1",
    "class": "f"
  }
]

Field: next molecule
# input Kindly provide the recorded test outcome for the following molecule: "C#Cc1cc2c(N)c(C(=O)c3cc(OC)c(OC)c(OC)c3)[nH]c2cc1OC"
# output f

====

tested on: COLO 205 colon; test: NCI-60 one-dose screen, 48 h (100 = growth as untreated, 0 = no growth, -100 = all killed); conditions: 10 µM unless noted
The panel holds about 83,000 compounds, 20% with a hit somewhere; the sample as a whole holds those more often.
I'd appreciate it if you could supply growth values for the items below.
One number for each entry, in %.

Below, each entry is followed by its recorded growth result.
[
  {
    "molecule": "COc1cc2c(cc1OC)C(=O)/C(=C/c1cc(-c3ccc4c(c3)OCO4)n[nH]1)C2",
    "value_units": "%",
    "growth": 7.58
  },
  {
    "molecule": "COc1ccc(O)c(-c2cc(-c3ccc(Cl)cc3)c(C#N)c(=O)[nH]2)c1",
    "value_units": "%",
    "growth": 95.2
  },
  {
    "molecule": "CC(C)(C)c1[nH]nc2c1C(c1cc3ccccc3[nH]c1=O)Nc1cc(C(=O)OCc3ccccc3)ccc1N2 (stereo not drawn)",
    "value_units": "%",
    "growth": 84.3
  },
  {
    "molecule": "OCC1OC(n2cnc3c(Cl)ncnc32)CC1O (stereo not drawn)",
    "value_units": "%",
    "growth": 104
  },
  {
    "molecule": "c1ccc(C2Cc3ccccc3C2=NC2CCCCC2)cc1 (stereo not drawn)",
    "value_units": "%",
    "growth": 115
  }
]

Please state, for each entry, its recorded growth.
1. Cc1cccc(C)c1NC(=O)CSC(=S)N1CCN(CCOCCO)CC1
2. Cc1c(C)c2c(c(C)c1NC(=O)CCCCCCC(=O)O)CCC(C)(CCCC(C)CCCC(C)CCCC(C)C)O2 (stereo not drawn)
3. CC(C)C[C@@H](NC(=O)[C@@H](Cc1ccccc1)NC(=O)c1cnccn1)B1O[C@H]2[C@H](O)[C@@H](C(=O)NCCCC[C@@H]3NC(=O)[C@@H](Cc4ccccc4)NC(=O)[C@H](CC(=O)O)NC(=O)CNC(=O)[C@H](CCCN=C(N)N)NC3=O)O[C@@H](CN)[C@H]2O1

# output
113
98.4
-81.1
